// provenance: patent US5486601A

experiment: AMES test (reverse mutagenicity test), strain TA98, with and without S-9; format: cell-based; conditions: s9, TA98, with S9, 313 μg/plate; read-out: magnification of the total number of the mutant colony to the control
Please respond with Yes when measured fold induction is strictly beneath 0.9, and with No in all other cases.

[[record]]
compound = "CCC(C)c1ccc(N=Nc2c(S(=O)(=O)O)cc3cc(S(=O)(=O)O)c(N=Nc4ccc(C5(c6ccc(N=Nc7ccc(N)cc7O)cc6)CCCCC5)cc4)c(N)c3c2O)cc1 (stereo not drawn)"
label_value = "No"

[[record]]
compound = "CCCCc1ccc(N=Nc2c(S(=O)(=O)O)cc3cc(S(=O)(=O)O)c(N=Nc4ccc(C5(c6ccc(N=Nc7ccc(N(C)C)cc7C(=O)O)cc6)CCCCC5)cc4)c(N)c3c2O)cc1"
label_value = "No"

[[record]]
compound = "CCCCc1ccc(N=Nc2c(S(=O)(=O)O)cc3cc(S(=O)(=O)O)c(N=Nc4ccc(C5(c6ccc(N=Nc7ccc(N(CC)CC)cc7C)cc6)CCCCC5)cc4)c(N)c3c2O)cc1"
label_value = "Yes"

[[record]]
compound = "CCCCc1ccc(N=Nc2c(S(=O)(=O)O)cc3cc(S(=O)(=O)O)c(N=Nc4ccc(C5(c6ccc(N=Nc7ccc(O)cc7O)cc6)CCCCC5)cc4)c(N)c3c2O)cc1"
label_value = "Yes"

[[record]]
compound = "CC(C)c1ccc(N=Nc2c(S(=O)(=O)O)cc3cc(S(=O)(=O)O)c(N=Nc4ccc(C5(c6ccc(N=Nc7ccc(N)cc7O)cc6)CCCCC5)cc4)c(N)c3c2O)cc1"
label_value = "No"

[[record]]
compound = "Nc1ccc(N=Nc2ccc(C3(c4ccc(N=Nc5c(S(=O)(=O)O)cc6cc(S(=O)(=O)O)c(N=Nc7ccccc7)c(O)c6c5N)cc4)CCCCC3)cc2)c(O)c1"
label_value = "No"

[[record]]
compound = "CCCCc1ccc(N=Nc2c(S(=O)(=O)O)cc3cc(S(=O)(=O)O)c(N=Nc4ccc(C5(c6ccc(N=Nc7ccc(N(C)C)cc7O)cc6)CCCCC5)cc4)c(N)c3c2O)cc1"
label_value = "Yes"

[[record]]
compound = "Cc1ccc(N=Nc2c(S(=O)(=O)O)cc3cc(S(=O)(=O)O)c(N=Nc4ccc(C5(c6ccc(N=Nc7ccc(N)cc7O)cc6)CCCCC5)cc4)c(N)c3c2O)cc1"
label_value = "No"

